Listed here are compounds together with their documented IC50.
biological target: CIB1 and αIIb interaction (CIB1-GST : F-αIIb peptide) (Homo sapiens); construct: made in house; host or cells: BL-21 plus RIL cells (E. coli); assay: FP assay, 1536-well qHTS format (primary and confirmatory screen); assay type: binding; conditions: qHTS primary screen hits, Table S2; read-out: IC50
Number plus unit, in that order.

* CCCCNC(=S)N/N=C1\C(=O)Nc2ccccc21.O=C(O)C(F)(F)F | 17.8 µM
* O=C(O)C(F)(F)F.O=C1Nc2ccccc2/C1=N/NC(=S)Nc1c(F)cc(F)cc1F | 12.6 µM
* COc1cc(C(=O)NS(=O)(=O)c2ccccc2C)ccc1Cc1cn(C)c2ccc(NC(=O)OC3CCCC3)cc12 | 35.5 µM
* O=C(O)c1csc(-n2cc(Cc3ccc(CO)cc3)c(-c3cccc(-c4ccccc4)c3)n2)n1 | 44.7 µM
* CCC(=O)NC(c1cccs1)c1cc(Cl)c2cccnc2c1O (centres unmarked) | 44.7 µM

Supply reported IC50 belonging to this compound: CCN(CC)CCCN(c1ccccc1)C1Cc2ccccc2C1.Cl 89.1 µM

Supply reported IC50 belonging to this compound: Cl.O=[N+]([O-])c1cccc(CNc2ccc(S(=O)(=O)Nc3nccs3)cc2)c1O 7.1 µM

Supply reported IC50 belonging to this compound: N#CCc1cc(-c2ccc(F)c(F)c2)nn1-c1nc(C(=O)O)cs1.O=C(O)C(F)(F)F 50.1 µM

====

Target: CIB1 and αIIb interaction (CIB1-GST : F-αIIb peptide) (Homo sapiens)
Construct: made in house; host or cells: BL-21 plus RIL cells (E. coli)
Sequence (Q99828 1-191): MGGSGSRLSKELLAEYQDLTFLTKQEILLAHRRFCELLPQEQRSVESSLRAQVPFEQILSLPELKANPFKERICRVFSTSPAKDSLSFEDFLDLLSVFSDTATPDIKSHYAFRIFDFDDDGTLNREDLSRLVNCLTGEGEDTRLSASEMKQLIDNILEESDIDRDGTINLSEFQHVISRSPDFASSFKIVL
Experiment: FP assay, 1536-well qHTS format (primary and confirmatory screen)
Type: binding
Conditions: qHTS FP screen hits, Table S2; negative = inhibition
Listed here are compounds together with their documented Efficacy (%).
Answer in %, number only, no unit symbol.

Please review the entries below; each comes with its answer.
- N#Cc1ccc(Nc2nc(-c3ccc(O)cc3O)cs2)cc1C(F)(F)F [NCGC00386816-01]: -71
- CCOC(=O)c1ccc(O)c2ncc(-c3ccc(C(=N)N)cc3)cc12.O=C(O)C(F)(F)F [NCGC00241050-01]: -77

Supply reported Efficacy (%) belonging to this compound: CCCC1CCN(C(=O)COC(=O)c2ccc(S(C)(=O)=O)c([N+](=O)[O-])c2)CC1 [NCGC00188533-01] -25

Supply reported Efficacy (%) belonging to this compound: CCCC(=O)c1cc(O)c(O)cc1O [NCGC00091839-03] -92

Supply reported Efficacy (%) belonging to this compound: CC(O)c1ccc(-c2ccc3ncnc(N4CCOCC4)c3c2)o1.O=C(O)C(F)(F)F (stereo not shown) [NCGC00238381-02] -19

Supply reported Efficacy (%) belonging to this compound: N#Cc1ccc(NS(=O)(=O)c2ccc(Nc3nc(-c4ccccc4)cs3)cc2)cc1.O=C(O)C(F)(F)F [NCGC00262382-01] -59

Supply reported Efficacy (%) belonging to this compound: Cc1cc(=O)oc2cc(SC3=NS(=O)(=O)c4ccccc43)ccc12 [NCGC00189497-01] -45

Supply reported Efficacy (%) belonging to this compound: COc1cc2ccccc2cc1C(=O)N/C(S)=N/c1cc(C(=O)O)ccc1C.O=C(O)C(F)(F)F [NCGC00479324-01] -25

Supply reported Efficacy (%) belonging to this compound: CN1CCN(c2cccc(Nc3nn4c(=O)c5ccc(Br)cc5nc4s3)c2)CC1.Cl [NCGC00187814-01] -28

Supply reported Efficacy (%) belonging to this compound: COC[C@H]1OC(=O)c2coc3c2[C@@]1(C)C1=C(C3=O)C2CCC(=O)[C@@]2(C)C[C@H]1OC(C)=O (stereo partly shown) [NCGC00016094-12] -33

Supply reported Efficacy (%) belonging to this compound: Cc1cc(NS(=O)(=O)c2ccc(NCCc3ccc(Cl)c(Cl)c3)cc2)no1.O=C(O)C(F)(F)F [NCGC00244100-02] -22

Supply reported Efficacy (%) belonging to this compound: Cc1ccc(CNc2ncnc3ccc(-c4ccc([C@@H](C)O)o4)cc23)o1 [NCGC00189252-01] -27

Supply reported Efficacy (%) belonging to this compound: CCOC(=O)C1CCN(C(=O)C(C)(C)NC(=O)Nc2ccc(C#N)cc2)CC1.O=C(O)C(F)(F)F [NCGC00242565-01] -22

Supply reported Efficacy (%) belonging to this compound: O=C(O)C(F)(F)F.O=S(=O)(Nc1nc2ccccc2s1)c1ccc(NCc2ccc(Br)cc2O)cc1 [NCGC00319026-01] -50

Supply reported Efficacy (%) belonging to this compound: O=C(Nc1ccc(S(=O)(=O)N2CCOCC2)cc1)c1cc(Cl)ccc1NS(=O)(=O)c1ccc(Cl)s1 [NCGC00249417-02] -34

Supply reported Efficacy (%) belonging to this compound: Brc1c(Br)c(Br)c2[nH]nnc2c1Br [NCGC00092352-04, 4,5,6,7-tetrabromobenzotriazole, reference compound] -49

====

Listed here are compounds together with their documented COUNTERSCREEN Curve Class.
target: GST-CIB1 : F-scrambled peptide (Homo sapiens, UniProt Q99828); construct: made in house; host or cells: BL-21 plus RIL cells (E. coli); assay: FP scrambled-peptide counter screen, 1536-well format; assay type: binding; conditions: scrambled-peptide counterscreen, qHTS curve class
Response field accepts a number only; no unit should be typed.

Please review the entries below; each comes with its answer.
• COC(=O)C12C(=O)C(C)(O)C(=O)C1(C)C(C)=CC1C34CCC(OC3=O)C(C)(CO)C4CCC12C (centres unmarked) [NCGC00380147-01] = 4
• CNC(=S)N/N=C1\C(=O)Nc2ccccc21.O=C(O)C(F)(F)F [NCGC00229528-01] = 4
• CCc1ccc(/C=C2/SC(=S)NC2=O)cc1 [NCGC00185994-01] = 4
• COc1cc(/C=C2/N=C(c3ccccc3)OC2=O)c(F)cc1OCc1ccccc1 [NCGC00168015-01] = 4
• CN(C)[C@H]1CCN(c2cccc(Nc3nn4c(=O)c5ccccc5nc4s3)c2)C1.O=C(O)C(F)(F)F [NCGC00189222-02] = -2.2

Write down the reported COUNTERSCREEN Curve Class (system: GST-CIB1 : F-scrambled peptide (Homo sapiens, UniProt Q99828)) of CCCCCc1c2c(cc(O)c1C(=O)O)OC(=O)c1c(cc(OC)cc1C(=O)CCCC)O2.O=C(O)C(F)(F)F [NCGC00095570-05] 4

Write down the reported COUNTERSCREEN Curve Class (system: GST-CIB1 : F-scrambled peptide (Homo sapiens, UniProt Q99828)) of O=C(O)C1=NC(C(=O)O)CC(/C=C/N2c3cc(O)c(OC4OC(CO)C(O)C(O)C4O)cc3CC2C(=O)O)=C1 (centres unmarked) [NCGC00346734-01] 4

Write down the reported COUNTERSCREEN Curve Class (system: GST-CIB1 : F-scrambled peptide (Homo sapiens, UniProt Q99828)) of O=C(O)C(F)(F)F.O=S(=O)(Nc1nc2n(n1)C(c1ccccc1)C=C(c1ccc(Cl)cc1)N2)c1ccccc1 (centres unmarked) [NCGC00100537-04] 4

Write down the reported COUNTERSCREEN Curve Class (system: GST-CIB1 : F-scrambled peptide (Homo sapiens, UniProt Q99828)) of CN1CCCN=C1/C=C/c1cccs1.O=C(O)c1cc2ccccc2c(Cc2c(O)c(C(=O)O)cc3ccccc23)c1O [NCGC00094552-04] 4

Write down the reported COUNTERSCREEN Curve Class (system: GST-CIB1 : F-scrambled peptide (Homo sapiens, UniProt Q99828)) of S=C(SSC(=S)N1CCCCC1)N1CCCCC1 [NCGC00181776-02, dipentamethylenethiuram disulfide] 4

Write down the reported COUNTERSCREEN Curve Class (system: GST-CIB1 : F-scrambled peptide (Homo sapiens, UniProt Q99828)) of CC(=O)Oc1cccc2c1C(=O)c1c(OC(C)=O)cc(C(=O)O)cc1C2=O [NCGC00018274-05] -2.4

Write down the reported COUNTERSCREEN Curve Class (system: GST-CIB1 : F-scrambled peptide (Homo sapiens, UniProt Q99828)) of CCOC(=O)c1c(NC(=O)C2CC(Cl)=CCC2C(=O)O)sc2c1CCCCC2.O=C(O)C(F)(F)F (centres unmarked) [NCGC00238648-01] 4

Write down the reported COUNTERSCREEN Curve Class (system: GST-CIB1 : F-scrambled peptide (Homo sapiens, UniProt Q99828)) of CC(=O)N1CCN(c2ccc(OCc3nn(C)c(C)c3-c3cccc4c(CCCOc5cccc6ccccc56)c(C(=O)O)n(Cc5cccnc5)c34)cc2)CC1 [NCGC00347174-02] 4

Write down the reported COUNTERSCREEN Curve Class (system: GST-CIB1 : F-scrambled peptide (Homo sapiens, UniProt Q99828)) of Cn1sc(=O)n(Cc2ccccc2)c1=O [NCGC00165913-03] 4

Write down the reported COUNTERSCREEN Curve Class (system: GST-CIB1 : F-scrambled peptide (Homo sapiens, UniProt Q99828)) of C=CCNc1oc(-c2ccc(-c3ccccc3)cc2)nc1C#N.O=C(O)C(F)(F)F [NCGC00183413-01] 4

Write down the reported COUNTERSCREEN Curve Class (system: GST-CIB1 : F-scrambled peptide (Homo sapiens, UniProt Q99828)) of Cc1ccccc1C(=O)c1no[n+]([O-])c1C(=O)c1ccccc1C.O=C(O)C(F)(F)F [NCGC00351166-01] 4

Write down the reported COUNTERSCREEN Curve Class (system: GST-CIB1 : F-scrambled peptide (Homo sapiens, UniProt Q99828)) of CCc1nnc(NS(=O)(=O)c2ccc(NC(=S)NC(=O)/C=C/c3ccc(F)cc3)cc2)s1 [NCGC00351476-01] 3

Write down the reported COUNTERSCREEN Curve Class (system: GST-CIB1 : F-scrambled peptide (Homo sapiens, UniProt Q99828)) of Cc1csc(CNc2ncnc3ccc(-c4ccc(CO)o4)cc23)n1.O=C(O)C(F)(F)F [NCGC00229623-01] 4

Write down the reported COUNTERSCREEN Curve Class (system: GST-CIB1 : F-scrambled peptide (Homo sapiens, UniProt Q99828)) of O=C(Cc1ccc(Cl)c(Cl)c1)Nc1ccc(S(=O)(=O)Nc2cccc(C(=O)O)c2)cc1.O=C(O)C(F)(F)F [NCGC00248362-01] 4

Write down the reported COUNTERSCREEN Curve Class (system: GST-CIB1 : F-scrambled peptide (Homo sapiens, UniProt Q99828)) of Cc1ccccc1S(=O)(=O)Nc1cnccc1C(=O)Nc1nc(-c2ccccc2)cs1.O=C(O)C(F)(F)F [NCGC00344941-01] 4

Write down the reported COUNTERSCREEN Curve Class (system: GST-CIB1 : F-scrambled peptide (Homo sapiens, UniProt Q99828)) of CN(C)C(=S)SSC(=S)N(C)C [NCGC00091563-12] 4

Write down the reported COUNTERSCREEN Curve Class (system: GST-CIB1 : F-scrambled peptide (Homo sapiens, UniProt Q99828)) of Cc1ccc(S(=O)(=O)Nc2cnccc2C(=O)Nc2nc(-c3ccc(C)c(C)c3)cs2)cc1.O=C(O)C(F)(F)F [NCGC00318954-01] 4

Write down the reported COUNTERSCREEN Curve Class (system: GST-CIB1 : F-scrambled peptide (Homo sapiens, UniProt Q99828)) of O=C(Cc1ccc(Cl)c(Cl)c1)Nc1ccc(S(=O)(=O)Nc2nnc(-c3ccccn3)s2)cc1.O=C(O)C(F)(F)F [NCGC00248355-01] -2.4

Write down the reported COUNTERSCREEN Curve Class (system: GST-CIB1 : F-scrambled peptide (Homo sapiens, UniProt Q99828)) of CC[C@@H](CO)NC(=O)[C@@H]1C=C2c3cccc4[nH]cc(c34)C[C@H]2N(C)C1.O=C(O)/C=C\C(=O)O [NCGC00017258-05] 4

Write down the reported COUNTERSCREEN Curve Class (system: GST-CIB1 : F-scrambled peptide (Homo sapiens, UniProt Q99828)) of Cc1ccc(Cl)cc1NC(=O)c1nc[nH]c1C(=O)Nc1nc2ccccc2[nH]1 [NCGC00244259-01] 4

Write down the reported COUNTERSCREEN Curve Class (system: GST-CIB1 : F-scrambled peptide (Homo sapiens, UniProt Q99828)) of O=C(O)C(F)(F)F.O=c1c2ccccc2nc2sc(Nc3cccc(N4CCN5CCCCC5C4)c3)nn12 (centres unmarked) [NCGC00189229-01] -2.4
